Target: Bifunctional epoxide hydrolase 2 (Homo sapiens) (UniProt P34913)
Sequence (whole entry): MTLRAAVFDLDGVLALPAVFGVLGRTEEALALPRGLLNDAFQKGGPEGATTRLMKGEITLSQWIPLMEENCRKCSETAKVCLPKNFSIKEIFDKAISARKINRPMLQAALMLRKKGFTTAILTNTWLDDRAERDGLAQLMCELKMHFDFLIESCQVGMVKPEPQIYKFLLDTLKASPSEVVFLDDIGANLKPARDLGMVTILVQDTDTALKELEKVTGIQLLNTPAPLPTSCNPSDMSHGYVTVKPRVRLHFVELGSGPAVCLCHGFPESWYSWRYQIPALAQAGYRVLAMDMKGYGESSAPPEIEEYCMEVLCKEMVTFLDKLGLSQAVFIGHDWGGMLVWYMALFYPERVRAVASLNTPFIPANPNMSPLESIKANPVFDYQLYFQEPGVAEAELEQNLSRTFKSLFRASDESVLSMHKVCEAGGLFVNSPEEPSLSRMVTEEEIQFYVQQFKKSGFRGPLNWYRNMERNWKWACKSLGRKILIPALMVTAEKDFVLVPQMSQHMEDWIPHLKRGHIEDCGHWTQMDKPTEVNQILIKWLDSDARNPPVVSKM
Conditions: at 50 µM
Description: Inhibition of sEH (unknown origin) assessed as 6-methoxy-2-naphthaldehyde formation at 50 uM by fluorometry assay using 40 uM cyano-(6-methoxy-naphthalen-2-yl)-methyl ester as substrate
measure.name: inhibition (%)
Provide the reading as a plain figure in %.

Solved entries:
COc1c(O[C@@H]2O[C@H](CO)[C@@H](O)[C@H](O)[C@H]2O)c(C)cc2c1C(=O)c1c(O)cccc1C2=O    50.6
COc1cc(O[C@@H]2O[C@H](CO[C@@H]3O[C@H](CO)[C@@H](O)[C@H](O)[C@H]3O)[C@@H](O)[C@H](O)[C@H]2O)c2c(O)c3c(=O)cc(C)oc3cc2c1    50.9

Query string: Reported inhibition for COc1cc(O[C@@H]2O[C@H](CO[C@@H]3O[C@H](CO)[C@@H](O)[C@H](O)[C@H]3O)[C@@H](O)[C@H](O)[C@H]2O)c2c(c1)C(=O)c1cc(C)cc(O)c1C2=O : what is it?
Result string: 51

Every entry's value here was drawn from ChEMBL document CHEMBL3632595.
